Entry source: patent US8735387B2

Target: human Edg-1 receptor (Homo sapiens)
Construct: expressed in transfected cells; membrane preparation
Sequence (P21453 whole entry): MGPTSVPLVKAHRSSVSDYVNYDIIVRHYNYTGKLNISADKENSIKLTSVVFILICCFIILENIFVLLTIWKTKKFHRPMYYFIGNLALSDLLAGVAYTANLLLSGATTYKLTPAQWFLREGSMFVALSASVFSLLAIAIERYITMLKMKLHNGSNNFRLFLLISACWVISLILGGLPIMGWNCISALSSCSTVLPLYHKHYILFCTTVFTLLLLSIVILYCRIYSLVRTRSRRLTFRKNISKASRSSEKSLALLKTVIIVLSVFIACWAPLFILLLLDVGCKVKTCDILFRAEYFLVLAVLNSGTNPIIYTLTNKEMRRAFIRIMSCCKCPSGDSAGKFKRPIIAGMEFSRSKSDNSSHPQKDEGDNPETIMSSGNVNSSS
Experiment: GTP-γ-S assay using human Edg-1 receptors (scintillation proximity assay, membrane preparation from CHO Flp-In cell line)
Assay type: biochemical
Details: example compound at 10 μM; relative to 10 μM S1P; GTP-γ-S SPA, human Edg-1 membranes
Readout kind: % Activation (Edg-1 receptor activation in percent of the activation by 10 μM S1P) (%)

[[record]]
molecule = "CCCOc1nc(CN2CCC(F)(F)CC2)nc2oc(-c3cc(OC)ccc3OC)nc12"
measured_result = 83

[[record]]
molecule = "CCCOc1nc(Cc2ccc(Cl)cc2)nc2oc(-c3cc(C)c(OCCCC(=O)O)c(C)c3)nc12"
measured_result = 112

[[record]]
molecule = "Cc1cccc(-c2nc3c(OC(C)C)nc(CN4CCOCC4)nc3o2)c1"
measured_result = 123

[[record]]
molecule = "CCOc1nc(Cc2ccc(Cl)cc2)nc2oc(-c3cc(C)c(OCC(=O)N4CCC(C(=O)O)C4)c(C)c3)nc12 (centres unmarked)"
measured_result = 86

[[record]]
molecule = "CCOc1nc(Cc2ccc(Cl)cc2)nc2oc(-c3cc(C)c(OCC(O)CNCc4ccccc4)c(C)c3)nc12 (centres unmarked)"
measured_result = 122

[[record]]
molecule = "CCCOc1nc(Cc2ccc(Cl)cc2)nc2oc(-c3cc(C)c(OCC(O)CNCCC(=O)O)c(C)c3)nc12 (centres unmarked)"
measured_result = 115

[[record]]
molecule = "CCCOc1nc(Cc2ccc(Cl)cc2)nc2oc(-c3cc(C)c(OCC(=O)NCC4CC4)c(C)c3)nc12"
measured_result = 86

[[record]]
molecule = "CCCOc1nc(Cc2ccc(Cl)cc2)nc2oc(-c3cc(C)c(OCC(=O)NCc4ccco4)c(C)c3)nc12"
measured_result = 102

[[record]]
molecule = "CCCOc1nc(Cc2ccc(Cl)cc2)nc2oc(-c3cc(C)c(OCC(=O)N4CC[C@H](O)C4)c(C)c3)nc12"
measured_result = 104

[[record]]
molecule = "CCCOc1nc(Cc2ccc(Cl)cc2)nc2oc(-c3ccc(C)cc3)nc12"
measured_result = 88

[[record]]
molecule = "CCCOc1nc(Cc2ccc(Cl)cc2)nc2oc(-c3cccc(OC)c3)nc12"
measured_result = 108


---

Molecular target: human Edg-1 receptor (Homo sapiens)
Construct: expressed in transfected cells; membrane preparation
Experiment: GTP-γ-S assay using human Edg-1 receptors (scintillation proximity assay, membrane preparation from CHO Flp-In cell line)
Type: biochemical
Conditions: example compound at 10 μM; relative to 10 μM S1P; GTP-γ-S SPA, human Edg-1 membranes
Readout kind: % Activation (Edg-1 receptor activation in percent of the activation by 10 μM S1P) (%)

[[record]]
molecule = "CCOc1nc(Cc2ccc(Cl)cc2)nc2oc(-c3cc(C)c(OCC(O)C[S+]([O-])c4ncn[nH]4)c(C)c3)nc12 (stereo not drawn) [Example 286]"
measured_result = 114


[1] CCCOc1nc(CN2CCC(F)(F)CC2)nc2oc(-c3ccc(Cl)c(F)c3)nc12 [Example 90]
[2] CCOc1nc(Cc2ccc(Cl)cc2)nc2oc(-c3cc(C)c(OCC(O)CNC4CCN(CC(C)C)CC4)c(C)c3)nc12 (stereo not drawn) [Example 262]
Input pair: 1 , 2 . Output: entry with lower % Activation (Edg-1 receptor activation in percent of the activation by 10 μM S1P). Mark your selection by writing its label. 2
(2: 43%, 1: 115%)
